Assay: self-splicing fitness, log relative to wild type (ln ratio); higher = more splicing; Tetrahymena group I intron in knt gene, E. coli kanamycin selection, DiMSum; sequences stand for … in CUCUCU…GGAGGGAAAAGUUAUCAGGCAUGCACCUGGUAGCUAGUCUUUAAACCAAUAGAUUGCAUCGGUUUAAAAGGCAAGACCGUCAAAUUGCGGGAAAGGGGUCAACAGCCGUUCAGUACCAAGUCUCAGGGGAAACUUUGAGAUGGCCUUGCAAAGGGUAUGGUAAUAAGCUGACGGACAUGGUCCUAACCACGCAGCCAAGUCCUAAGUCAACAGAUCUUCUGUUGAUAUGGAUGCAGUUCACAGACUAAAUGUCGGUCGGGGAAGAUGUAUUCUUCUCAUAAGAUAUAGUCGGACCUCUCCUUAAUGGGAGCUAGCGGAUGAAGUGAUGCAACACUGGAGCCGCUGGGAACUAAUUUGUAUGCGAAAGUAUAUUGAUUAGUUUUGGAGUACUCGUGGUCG;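 also: selection with 25 µg/mL kanamycin versus none on LB agar overnight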
Settings: 37 °C
Readout Type: self-splicing fitness (ln)
A bare number is all that is needed in reply.

Please review the entries below; each comes with its answer.
Sequence Record	Readout Type	Measured Value
UUCCAGCAAUAUUACGCUGA	self-splicing fitness (ln)	-1.91
GUAGAGCAAUAUUACGUGUG	self-splicing fitness (ln)	-1.6
ACCCAGCAAUAUUACGUAUA	self-splicing fitness (ln)	-1.2
UGUCAGCAAUAUUACGGAGU	self-splicing fitness (ln)	-1.96
GGCGAGCAAUAUUACGAGCA	self-splicing fitness (ln)	-0.374
GUCCAGCAAUAUUACGCGGG	self-splicing fitness (ln)	-2.92
GCCAAGCAAUAUUACGUCUC	self-splicing fitness (ln)	-0.174
GAGUAGCAAUAUUACGACCG	self-splicing fitness (ln)	-0.977
GCAUAGCAAUAUUACGCAUA	self-splicing fitness (ln)	-1.16
GGUUAGCAAUAUUACGGGAU	self-splicing fitness (ln)	-1.4

Provide only the value of recorded self-splicing fitness (ln) for `UUGGAGCAAUAUUACGUGCU`
-2.64

Provide only the value of recorded self-splicing fitness (ln) for `CCGAAGCAAUAUUACGGUGC`
-2.26

Provide only the value of recorded self-splicing fitness (ln) for `GGAAAGCAAUAUUACGGCUC`
0.018

Provide only the value of recorded self-splicing fitness (ln) for `GUGCAGCAAUAUUACGGACG`
-0.949

Provide only the value of recorded self-splicing fitness (ln) for `UCGUAGCAAUAUUACGUUGG`
-0.973

Provide only the value of recorded self-splicing fitness (ln) for `ACAGAGCAAUAUUACGACGA`
-1.83

Provide only the value of recorded self-splicing fitness (ln) for `UGAUAGCAAUAUUACGCUCA`
-0.26

Provide only the value of recorded self-splicing fitness (ln) for `UUUGAGCAAUAUUACGCUAU`
-2.26

====

Below, each entry is listed alongside its reported self-splicing fitness (ln).
Assay: self-splicing fitness, log relative to wild type (ln ratio); higher = more splicing; Tetrahymena group I intron in knt gene, E. coli kanamycin selection, DiMSum; sequences stand for … in CUCUCU…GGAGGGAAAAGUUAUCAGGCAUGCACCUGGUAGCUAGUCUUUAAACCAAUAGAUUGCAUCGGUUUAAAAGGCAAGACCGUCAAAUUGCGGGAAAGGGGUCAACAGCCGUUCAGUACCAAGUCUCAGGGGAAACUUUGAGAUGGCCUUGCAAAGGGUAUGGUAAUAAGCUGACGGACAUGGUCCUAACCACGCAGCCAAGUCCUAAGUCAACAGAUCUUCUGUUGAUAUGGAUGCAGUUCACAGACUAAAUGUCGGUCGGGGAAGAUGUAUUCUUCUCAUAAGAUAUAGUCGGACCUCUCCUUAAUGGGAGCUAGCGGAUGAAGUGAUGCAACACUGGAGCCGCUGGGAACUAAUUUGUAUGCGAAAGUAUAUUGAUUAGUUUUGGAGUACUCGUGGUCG
Conditions: 30 °C
A bare number is all that is needed in reply.

Please review the entries below; each comes with its answer.
Sequence Record	Readout Type	Measured Value
CUUAAGCAAUAUUACGGAGU	self-splicing fitness (ln)	-2.92
UGGGAGCAAUAUUACGUCUC	self-splicing fitness (ln)	-3.13
UAUAAGCAAUAUUACGUGCU	self-splicing fitness (ln)	-2.56
UCAGAGCAAUAUUACGGUUA	self-splicing fitness (ln)	-2.88
CUAAAGCAAUAUUACGAGGU	self-splicing fitness (ln)	-4.41

Provide only the value of recorded self-splicing fitness (ln) for `ACGUAGCAAUAUUACGGGAC`
-4.43

====

Below, each entry is listed alongside its reported self-splicing fitness (ln).
Experiment: self-splicing fitness, log relative to wild type (ln ratio); higher = more splicing; Tetrahymena group I intron in knt gene, E. coli kanamycin selection, DiMSum; sequences stand for … in CUCUCU…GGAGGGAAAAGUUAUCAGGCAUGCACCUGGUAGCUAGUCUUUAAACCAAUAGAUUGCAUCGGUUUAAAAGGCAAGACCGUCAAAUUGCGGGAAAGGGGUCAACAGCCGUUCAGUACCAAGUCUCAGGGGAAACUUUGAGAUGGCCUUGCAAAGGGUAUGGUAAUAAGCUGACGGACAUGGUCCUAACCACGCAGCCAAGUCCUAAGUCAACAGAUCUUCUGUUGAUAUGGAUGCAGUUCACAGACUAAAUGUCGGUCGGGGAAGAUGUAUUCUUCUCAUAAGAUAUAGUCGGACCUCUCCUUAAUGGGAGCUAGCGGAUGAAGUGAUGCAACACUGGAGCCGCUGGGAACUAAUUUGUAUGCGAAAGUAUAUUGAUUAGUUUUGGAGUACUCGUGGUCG
Conditions: 30 °C

Provide only the value of recorded self-splicing fitness (ln) for `ACCUAGCAAUAUUACGUACA`
-1.31

Provide only the value of recorded self-splicing fitness (ln) for `GGUCAGCAAUAUUACGUAGG`
-2.33

Provide only the value of recorded self-splicing fitness (ln) for `AAUAAGCAAUAUUACGUCUA`
-0.766

Provide only the value of recorded self-splicing fitness (ln) for `CCAGAGCAAUAUUACGUGAA`
-3.7

Provide only the value of recorded self-splicing fitness (ln) for `GGAGAGCAAUAUUACGUCCU`
-3.2

Provide only the value of recorded self-splicing fitness (ln) for `CGUUAGCAAUAUUACGACUG`
-0.369

Provide only the value of recorded self-splicing fitness (ln) for `AAGAAGCAAUAUUACGUGGU`
-3.58

====

Test: self-splicing fitness, log relative to wild type (ln ratio); higher = more splicing; Tetrahymena group I intron in knt gene, E. coli kanamycin selection, DiMSum; sequences stand for … in CUCUCU…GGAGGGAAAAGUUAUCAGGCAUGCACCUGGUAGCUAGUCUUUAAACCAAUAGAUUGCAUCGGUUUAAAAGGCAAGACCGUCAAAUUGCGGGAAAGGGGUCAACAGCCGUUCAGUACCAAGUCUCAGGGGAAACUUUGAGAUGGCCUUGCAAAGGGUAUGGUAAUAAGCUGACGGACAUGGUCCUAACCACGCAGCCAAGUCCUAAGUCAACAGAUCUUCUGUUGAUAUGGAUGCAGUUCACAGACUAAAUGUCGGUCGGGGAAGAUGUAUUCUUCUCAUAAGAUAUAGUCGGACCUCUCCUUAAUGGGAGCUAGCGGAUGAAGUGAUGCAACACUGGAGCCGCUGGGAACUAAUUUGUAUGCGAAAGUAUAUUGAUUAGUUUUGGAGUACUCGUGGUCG
Settings: 30 °C
Readout Type: self-splicing fitness (ln)
A bare number is all that is needed in reply.

Sequence Record	self-splicing fitness (ln)
AGCUAGCAAUAUUACGCCGG	-2.94

Provide only the value of recorded self-splicing fitness (ln) for `UUAGAGCAAUAUUACGUUUA`
-2.01

Provide only the value of recorded self-splicing fitness (ln) for `GAUGAGCAAUAUUACGAACA`
-3.07

====

Below, each entry is listed alongside its reported self-splicing fitness (ln).
Assay: self-splicing fitness, log relative to wild type (ln ratio); higher = more splicing; Tetrahymena group I intron in knt gene, E. coli kanamycin selection, DiMSum; sequences stand for … in CUCUCU…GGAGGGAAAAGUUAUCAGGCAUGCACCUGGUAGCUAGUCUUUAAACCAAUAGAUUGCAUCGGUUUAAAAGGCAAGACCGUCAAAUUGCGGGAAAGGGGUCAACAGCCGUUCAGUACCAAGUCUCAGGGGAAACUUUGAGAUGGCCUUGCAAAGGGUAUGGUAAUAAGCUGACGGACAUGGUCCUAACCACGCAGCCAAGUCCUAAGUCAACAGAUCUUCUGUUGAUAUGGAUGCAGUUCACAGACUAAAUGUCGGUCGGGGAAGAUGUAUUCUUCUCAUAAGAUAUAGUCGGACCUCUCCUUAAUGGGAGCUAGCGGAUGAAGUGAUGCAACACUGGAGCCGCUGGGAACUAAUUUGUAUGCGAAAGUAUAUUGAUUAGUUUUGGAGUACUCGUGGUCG
Conditions: 37 °C

Sequence Record	Measured Value
UCACAGCAAUAUUACGGGGG	-2.03
CAUGAGCAAUAUUACGCUAU	-1.99

Alright, here's another sequence for you.
Provide only the value of recorded self-splicing fitness (ln) for `GAAGAGCAAUAUUACGACAA`
-2.02
